Observed IC50 values for JAK2 (Homo sapiens (Human), UniProt O60674) are listed in what follows.

Problem: Sample CCC(CC)n1cc(-c2nc(-c3cnn([C@H]4C[C@@H](O)C4)c3)cn3nccc23)cn1 [Example 119] — what was its IC50?
Solution: 10 to 100 nM

Problem: Sample CCC(CC)n1cc(-c2nc(-c3cnn(C[C@H](N)C(C)(C)O)c3)cn3nccc23)cn1 [Example 183] — what was its IC50?
Solution: 10 to 100 nM

Problem: Sample CCC(CC)n1cc(-c2nc(-c3cnn(CC[C@@H](O)CO)c3)cn3nccc23)cn1 [Example 64] — what was its IC50?
Solution: 10 to 100 nM

Problem: Sample CCC(CC)n1cc(-c2nc(-c3cnn(CCS(C)(=O)=O)c3)cn3nccc23)cn1 [Example 22] — what was its IC50?
Solution: 10 to 100 nM

Problem: Sample CC[C@@H](C)n1cc(-c2nc(-c3cnn(C[C@H](O)CO)c3)cn3nccc23)cn1 [Example 71] — what was its IC50?
Solution: 100 to 1000 nM

Problem: Sample CCC(CC)n1cc(-c2nc(-c3cnn(CCN[C@H]4CCN(C)C4=O)c3)cn3nccc23)cn1 [Example 142] — what was its IC50?
Solution: 10 to 100 nM

Problem: Sample CCC(CC)n1cc(-c2nc(-c3cnn([C@H]4CCC[C@H]4O)c3)cn3nccc23)cn1 (single isomer, unassigned) [compound 190] — what was its IC50?
Solution: 100 to 1000 nM
